pIC50: −log10 of the molar value.
Hi! I'm sharing some pIC50 results obtained with 72 kDa type IV collagenase (Homo sapiens).
Sequence (P08253 whole entry): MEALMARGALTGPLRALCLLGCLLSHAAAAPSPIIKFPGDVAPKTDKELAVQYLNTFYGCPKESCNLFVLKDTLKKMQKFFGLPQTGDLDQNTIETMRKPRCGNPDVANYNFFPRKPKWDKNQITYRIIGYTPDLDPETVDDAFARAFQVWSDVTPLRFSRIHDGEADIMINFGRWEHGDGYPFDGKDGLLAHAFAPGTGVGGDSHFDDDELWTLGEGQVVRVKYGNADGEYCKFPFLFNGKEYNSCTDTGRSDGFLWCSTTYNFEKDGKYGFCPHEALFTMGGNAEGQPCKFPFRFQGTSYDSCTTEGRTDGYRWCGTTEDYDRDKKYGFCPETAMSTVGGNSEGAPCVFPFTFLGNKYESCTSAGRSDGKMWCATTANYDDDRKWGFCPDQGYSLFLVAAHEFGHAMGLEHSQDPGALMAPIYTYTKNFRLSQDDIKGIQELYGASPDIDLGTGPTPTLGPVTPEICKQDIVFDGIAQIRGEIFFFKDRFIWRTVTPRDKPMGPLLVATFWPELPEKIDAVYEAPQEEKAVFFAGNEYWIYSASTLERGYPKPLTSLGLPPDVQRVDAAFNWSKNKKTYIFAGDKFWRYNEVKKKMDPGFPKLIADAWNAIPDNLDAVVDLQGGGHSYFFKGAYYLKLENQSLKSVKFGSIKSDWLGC
outcome measure: pIC50

Check out these entries, answers already filled in.
N[C@@H](Cc1ccccc1)C(=O)N[C@H]1CCC(=O)N(CC(=O)Nc2cccc(Cl)c2)C1=O | 4.22
N[C@@H](Cc1ccccc1)C(=O)N[C@H]1CCC(=O)N(CC(=O)NCC(=O)O)C1=O | 3.97
NC(Cc1ccccc1)C(=O)N[C@H]1CCC(=O)N(CC(=O)NCC(=O)NO)C1=O (single isomer, unassigned) | 3.85
NC(Cc1ccccc1)C(=O)N[C@H]1CCC(=O)N(CC(=O)NCCC(=O)OCc2ccccc2)C1=O (single isomer, unassigned) | 3.90
CC(C)C[C@H](NC(=O)CN1C(=O)CC[C@H](NC(=O)[C@@H](N)Cc2ccccc2)C1=O)C(=O)OCc1ccccc1 | 3.92

A = N[C@@H](Cc1ccccc1)C(=O)N[C@H]1CCC(=O)N(CC(=O)Nc2ccccc2F)C1=O
B = C[C@H](NC(=O)CN1C(=O)CC[C@H](NC(=O)[C@@H](N)Cc2ccccc2)C1=O)C(=O)OCc1ccccc1
C = NC(Cc1ccccc1)C(=O)N[C@H]1CCC(=O)N(CC(=O)NCCC(=O)O)C1=O (single isomer, unassigned)
Put these in order: smallest pIC50 first, largest last. Returns: the labels arranged in the requested order.
B, A, C
(B: 3.89, A: 4.20, C: 4.64)

* * *

measured target: Aminopeptidase N (Sus scrofa, UniProt P15145)
Sequence (P15145 whole entry): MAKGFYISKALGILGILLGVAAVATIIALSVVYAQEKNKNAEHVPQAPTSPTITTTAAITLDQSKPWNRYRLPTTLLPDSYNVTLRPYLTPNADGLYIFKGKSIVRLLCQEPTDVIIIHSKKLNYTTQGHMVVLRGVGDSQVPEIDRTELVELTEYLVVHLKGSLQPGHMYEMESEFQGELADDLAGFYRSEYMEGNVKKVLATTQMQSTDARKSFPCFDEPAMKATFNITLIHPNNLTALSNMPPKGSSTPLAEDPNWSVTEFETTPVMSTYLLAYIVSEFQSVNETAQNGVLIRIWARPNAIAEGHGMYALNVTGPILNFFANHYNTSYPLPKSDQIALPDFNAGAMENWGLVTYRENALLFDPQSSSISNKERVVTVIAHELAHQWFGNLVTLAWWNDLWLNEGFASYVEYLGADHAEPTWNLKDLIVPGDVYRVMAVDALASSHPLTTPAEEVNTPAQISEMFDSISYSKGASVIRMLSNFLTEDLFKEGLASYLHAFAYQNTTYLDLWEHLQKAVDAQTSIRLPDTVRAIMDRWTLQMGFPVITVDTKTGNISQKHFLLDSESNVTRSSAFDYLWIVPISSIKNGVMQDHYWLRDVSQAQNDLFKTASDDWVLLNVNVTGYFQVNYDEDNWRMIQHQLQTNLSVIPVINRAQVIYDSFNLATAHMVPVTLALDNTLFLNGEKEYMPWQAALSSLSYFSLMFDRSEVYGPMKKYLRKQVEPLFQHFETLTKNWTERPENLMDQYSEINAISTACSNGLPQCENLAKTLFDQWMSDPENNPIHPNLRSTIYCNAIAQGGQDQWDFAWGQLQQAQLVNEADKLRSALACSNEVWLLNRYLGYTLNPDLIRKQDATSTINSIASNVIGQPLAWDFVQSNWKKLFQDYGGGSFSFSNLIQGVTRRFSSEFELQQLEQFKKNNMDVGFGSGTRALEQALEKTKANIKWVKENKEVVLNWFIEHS
pIC50: −log10 of the molar value.
outcome measure: pIC50

Check out these entries, answers already filled in.
N[C@@H](Cc1ccccc1)C(=O)N[C@H]1CCC(=O)N(CC(=O)Nc2ccc(F)cc2)C1=O | 3.60
N[C@@H](Cc1ccccc1)C(=O)N[C@H]1CCC(=O)N(CC(=O)N[C@@H](Cc2ccccc2)C(=O)O)C1=O | 4.18
N[C@@H](Cc1ccccc1)C(=O)N[C@H]1CCC(=O)N(CC(=O)NCC(=O)OCc2ccccc2)C1=O | 4.87
CC(C)[C@H](NC(=O)CN1C(=O)CC[C@H](NC(=O)[C@@H](N)Cc2ccccc2)C1=O)C(=O)O | 4.88

I = N[C@@H](Cc1ccccc1)C(=O)N[C@H]1CCC(=O)N(CC(=O)N[C@@H](CCC(=O)OCc2ccccc2)C(=O)OCc2ccccc2)C1=O
II = N[C@@H](Cc1ccccc1)C(=O)N[C@H]1CCC(=O)N(CC(=O)Nc2ccc(F)c(Cl)c2)C1=O
III = NC(Cc1ccccc1)C(=O)N[C@H]1CCC(=O)N(CC(=O)N[C@@H](CCC(=O)O)C(=O)O)C1=O (single isomer, unassigned)
Kindly order the items shown according to pIC50, from the highest value down. Returns: the labels arranged in the requested order.
III, I, II

* * *

Hi! I'm sharing some IC50 results obtained with 72 kDa type IV collagenase (Homo sapiens).

COc1ccc(NC(=O)CN2C(=O)CC[C@H](NC(=O)[C@@H](N)Cc3ccccc3)C2=O)cc1 | > 1000 µM
CC(C)C[C@H](NC(=O)CN1C(=O)CC[C@H](NC(=O)[C@@H](N)Cc2ccccc2)C1=O)C(=O)O | > 1000 µM

Here is another compound to look at.
Please tell me: IC50 of N[C@@H](Cc1ccccc1)C(=O)N[C@H]1CCC(=O)N(CC(=O)Nc2ccc(F)c(F)c2)C1=O , system 72 kDa type IV collagenase (Homo sapiens)?
46.9 µM
